Origin of values: PubChem BioAssay AID720530

Target: E3 ubiquitin-protein ligase UHRF1 (Homo sapiens)
Assay: blockers of UHRF1 binding to methyl-oligo – biochemical, TR-FRET, human UHRF1, counter-screen for MBD2 inhibitor project (AID 720530);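 note: UHRF1 SRA domain binding a labeled hemimethylated CpG hairpin DNA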
Details: UHRF1 binding to methylated oligonucleotide, at 4.4 µM
Among all 1,000 compounds or so, about 260 (26%) were called active. Cut-off read from the data, not from the text of the source: active = inhibition above about 21%; inactive = the rest. These entries were drawn from the full list.
Output constraint: value belongs to active, inactive

Check out these entries, answers already filled in.
                                   molecule                            assayed_target  assigned_label
0      CCOc1ccc(NC(=O)c2cc(C)nc3ccccc23)cc1  E3 ubiquitin-protein ligase UHRF1 (Homo sapiens)        inactive
1  O=C(c1n[nH]c2c1CCC2)N1CCCC(Nc2cccc(F)c2)C1 (stereo not given)  E3 ubiquitin-protein ligase UHRF1 (Homo sapiens)        inactive
2         Cc1cc(C)c2nc3nc(C)cc(C)c3c(N)c2c1  E3 ubiquitin-protein ligase UHRF1 (Homo sapiens)          active
3                     Cc1ccc(Cc2cnc(N)s2)o1  E3 ubiquitin-protein ligase UHRF1 (Homo sapiens)        inactive
4  CC(C)Oc1ccc(C2NC(=O)NC2=O)cc1 (stereo not given)  E3 ubiquitin-protein ligase UHRF1 (Homo sapiens)        inactive

*Q* I would be grateful if you could indicate the recorded call for CN(C)[C@@H]1C(=O)C(C(N)=O)=C(O)[C@@]2(O)C(=O)C3=C(O)c4c(O)ccc(Cl)c4[C@@H](O)[C@H]3C[C@@H]12 .
*A* inactive

*Q* Any idea what this test logged for CCOC(=O)CCP(=O)(O)C(O)(c1ccccc1)c1ccccc1 ?
*A* inactive

*Q* Please let me know the test result on file for CNC(=O)C[C@H]1C(=O)N(c2ccc(OC)cc2)C[C@@H]1Cc1ccccc1 .
*A* inactive

*Q* Hi, do you know how COc1ccc(COC[C@H](CC(C)C)N2CCN(C(=O)c3cccc(C(F)(F)F)c3)CCC2=O)cc1 came out in this test?
*A* inactive

*Q* Outcome logged for Cc1cccc(CN2CCN(C3CN(Cc4cn(Cc5cc(C)cc(C)c5)nn4)S(=O)(=O)C3)CC2)c1 (stereo not given) in this assay:
*A* inactive

* * *

Molecular target: E3 ubiquitin-protein ligase UHRF1 (Homo sapiens)
Test: blockers of UHRF1 binding to methyl-oligo – biochemical, TR-FRET, human UHRF1, counter-screen for MBD2 inhibitor project (AID 720530);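 note: UHRF1 SRA domain binding a labeled hemimethylated CpG hairpin DNA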
Details: UHRF1 binding to methylated oligonucleotide, at 4.4 µM
The whole screen tested about 1,000 compounds, of which about 260 (26%) were called active. No stated cut-off is given here; in the data, active means inhibition above about 21%; inactive means the rest. A selection follows.
Choose the fitting class; nothing outside active, inactive is accepted.

Worked cases, answers included:
In [3]: df
Out[3]:
                                   molecule                            assayed_target  assigned_label
0  Cc1c(NS(=O)(=O)c2cc(C(=O)NCCc3ccc(F)cc3)cc(Cl)c2Cl)c(=O)n(-c2ccccc2)n1C  E3 ubiquitin-protein ligase UHRF1 (Homo sapiens)        inactive
1  C=CC1=C(C(=O)O)N2C(=O)[C@@H](NC(=O)/C(=N\OCC(=O)O)c3csc(N)n3)[C@H]2SC1  E3 ubiquitin-protein ligase UHRF1 (Homo sapiens)          active
2  CCOc1ccc(-n2c(SCC(=O)Nc3ccc(OC)cc3)nc3sc4c(c3c2=O)CCN(C)C4)cc1  E3 ubiquitin-protein ligase UHRF1 (Homo sapiens)        inactive
3             Cc1c(C=O)n(C)n(-c2ccccc2)c1=O  E3 ubiquitin-protein ligase UHRF1 (Homo sapiens)        inactive
4  COC(=O)c1ccc2nc(C3CCCCC3)c(Cc3cccc(F)c3)n2c1  E3 ubiquitin-protein ligase UHRF1 (Homo sapiens)        inactive

*Q* So what was the verdict on Cc1ccc(C(=O)Nc2ccc3c(c2)OCO3)cc1S(=O)(=O)N1CCCCC1 in this test?
*A* inactive

*Q* Please let me know the test result on file for CN(C)CCNC(=O)c1ccc(Cl)c2cc3ccccc3nc12 .
*A* active

*Q* Hi, sorry to bother you, what did the test record for Nc1ccccc1C(=O)NC1CCCCNC1=O (centres undefined) ?
*A* inactive

*Q* Test call, this molecule: CC(=O)c1ccccc1NC(=O)COC(=O)C1COc2ccccc2O1 (centres undefined)
*A* inactive
